- Test target: UniProt:P05979
- Sequence (P05979 25-600): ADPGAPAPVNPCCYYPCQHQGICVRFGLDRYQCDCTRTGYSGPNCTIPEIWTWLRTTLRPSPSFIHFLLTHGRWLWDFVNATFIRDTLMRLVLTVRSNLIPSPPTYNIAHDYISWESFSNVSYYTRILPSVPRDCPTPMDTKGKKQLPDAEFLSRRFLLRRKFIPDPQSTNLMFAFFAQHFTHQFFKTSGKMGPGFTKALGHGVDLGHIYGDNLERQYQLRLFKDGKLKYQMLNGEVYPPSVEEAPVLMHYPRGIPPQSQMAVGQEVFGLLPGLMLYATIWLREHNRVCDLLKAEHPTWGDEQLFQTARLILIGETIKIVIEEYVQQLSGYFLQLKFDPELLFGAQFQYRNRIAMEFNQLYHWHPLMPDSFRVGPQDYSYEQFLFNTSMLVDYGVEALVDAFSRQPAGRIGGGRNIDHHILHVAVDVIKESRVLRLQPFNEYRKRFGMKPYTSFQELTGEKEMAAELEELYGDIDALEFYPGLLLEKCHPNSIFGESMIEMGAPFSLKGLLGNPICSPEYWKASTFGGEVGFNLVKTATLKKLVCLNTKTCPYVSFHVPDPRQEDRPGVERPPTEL
Assay endpoint: IC50 (µM)

• CC(C)(O)C#CCCCCCCC#Cc1ccc(O)c(O)c1 = 31
• COc1cc(C#CCCCCCCC#CCO)cc(OC)c1O = 38
• Oc1ccc(/C=C\CCCCCC/C=C/C(O)C2CCCCC2)cc1O (centres unmarked) [Example 22d] = 180
• Oc1ccc(C#CCCCCCC/C=C/C(O)C2CCCCC2)cc1O (centres unmarked) [Example 22c] = 130

* * *

- Test target: 5-lipoxygenase (Rattus norvegicus)
- Construct: endogenous in cells
- Sequence (P12527 whole entry): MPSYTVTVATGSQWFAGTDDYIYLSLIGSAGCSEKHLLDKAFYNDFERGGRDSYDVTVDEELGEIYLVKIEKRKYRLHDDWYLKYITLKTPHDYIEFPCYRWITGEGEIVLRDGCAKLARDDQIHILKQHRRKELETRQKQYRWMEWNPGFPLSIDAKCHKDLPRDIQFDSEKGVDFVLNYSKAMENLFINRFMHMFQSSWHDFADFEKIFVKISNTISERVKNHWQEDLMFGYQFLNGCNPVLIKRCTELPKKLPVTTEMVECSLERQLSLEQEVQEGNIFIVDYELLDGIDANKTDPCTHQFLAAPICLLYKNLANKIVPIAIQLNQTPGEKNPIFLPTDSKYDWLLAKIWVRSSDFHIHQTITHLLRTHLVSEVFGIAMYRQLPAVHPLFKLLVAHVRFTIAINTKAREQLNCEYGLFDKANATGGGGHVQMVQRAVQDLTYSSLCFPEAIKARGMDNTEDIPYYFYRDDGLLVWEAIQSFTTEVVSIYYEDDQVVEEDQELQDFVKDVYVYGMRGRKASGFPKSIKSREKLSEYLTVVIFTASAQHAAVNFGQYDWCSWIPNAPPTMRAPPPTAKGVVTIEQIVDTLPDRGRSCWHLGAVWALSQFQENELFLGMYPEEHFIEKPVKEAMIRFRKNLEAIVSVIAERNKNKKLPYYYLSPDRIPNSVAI
- Test protocol: Inhibition of 5-lipoxygenase in rat basophilic leukemia cells (5-HETE and LTB4 formation from [14C]-arachidonic acid)
- Applied conditions: indomethacin 10 μM, A 23187, room temperature, 5 minutes, read-out: IC50 for inhibition of 5-lipoxygenase (I)
- Description: To determine the inhibition of 5-lipoxygenase rat basophilic leukemia cells were cultured in vitro, and after a cell concentration of about 10^6 cells/ml had been obtained, the cells were harvested by centrifugation at 400 g. The precipitate was suspended in 50 mM potassium phosphate buffer of pH 7.4 at 1.5×10^7 cells/ml. […]
Assay endpoint: IC50 (nM)

* Oc1ccc(C#CCCCCCCC#CC(O)c2ccccc2)cc1O (centres unmarked) [Example 15] | 320
* COc1cc(C#CCCCCCCC#CCO)cc(OC)c1O [Example 18] | 100
* CC(C)(O)C#CCCCCCCC#Cc1ccc(O)c(O)c1 [Example 13] | 350
* OC/C=C\CCCCCC/C=C\c1ccc(O)c(O)c1 [Example 9] | 310
* Oc1ccc(C#CCCCCCCC#CC(O)C2CCCCC2)cc1O (centres unmarked) [Example 16] | 280

* * *

- Test system: Sprague-Dawley-rats
- Test protocol: Inhibition of kaolin-induced paw oedema, test compound given intraperitoneally three hours after induction
- Assay type: in vivo
- Applied conditions: 100.0 mg/kg intraperitoneally, 3 h after kaolin; more than 100% = decrease below initial value
Assay endpoint: % Inhibition (Maximum) of oedema

* Oc1ccc(C#CCCCCCCC#CC(O)C2CCCCC2)cc1O (stereo not shown) | 54%
* CCCCCC(O)C#CCCCCCCC#Cc1ccc(O)c(O)c1 (stereo not shown) | 127%
* Oc1ccc(C#CCCCCCCC#CC(O)c2ccccc2)cc1O (stereo not shown) | 73%
* OCC#CCCCCCCC#Cc1ccc(O)c(O)c1 | 164%
